- system: Biotin-labeled amyloid-β (Homo sapiens)
- test_name: ELISA assay, binding of biotin-labeled amyloid-β to plate-coated test compounds
- measurement_context: β-Amyloid Dilution 1 (μL/well); compound coated at 1 μM
parameter_measured: Average Luminescence Concentration (CPS)
Dear colleague, please return just the value in CPS, with no unit written.

Request: # lookup: Biotin-labeled amyloid-β (Homo sapiens) Average Luminescence Concentration (CPS), key = NCCCNC(=O)c1ccccc1Nc1cccc(C(F)(F)F)c1
Result: 878

Request: # lookup: Biotin-labeled amyloid-β (Homo sapiens) Average Luminescence Concentration (CPS), key = NCCNC(=O)c1ccccc1Nc1cccc(C(F)(F)F)c1
Result: 323

Request: # lookup: Biotin-labeled amyloid-β (Homo sapiens) Average Luminescence Concentration (CPS), key = Cc1ccc2c(c1)sc(-c1ccc(N(C)C)cc1)[n+]2C.[Cl-] [Thioflavin-T, reference compound]
Result: 940

Request: # lookup: Biotin-labeled amyloid-β (Homo sapiens) Average Luminescence Concentration (CPS), key = NCCCCCNC(=O)c1ccccc1Nc1cccc(C(F)(F)F)c1
Result: 105

Request: # lookup: Biotin-labeled amyloid-β (Homo sapiens) Average Luminescence Concentration (CPS), key = NCCCCNC(=O)c1ccccc1Nc1cccc(C(F)(F)F)c1
Result: 32

----------
- system: Biotin-labeled amyloid-β (Homo sapiens)
- test_name: ELISA assay, binding of biotin-labeled amyloid-β to plate-coated test compounds
- measurement_context: β-Amyloid Dilution 5 (μL/well); compound coated at 1 μM
parameter_measured: Average Luminescence Concentration (CPS)
Dear colleague, please return just the value in CPS, with no unit written.

Request: Consider the molecule NCCCNC(=O)c1ccccc1Nc1cccc(C(F)(F)F)c1 [3b] and give its recorded Average Luminescence Concentration (CPS).
Result: 1325

Request: Consider the molecule NCCCCCNC(=O)c1ccccc1Nc1cccc(C(F)(F)F)c1 [3d] and give its recorded Average Luminescence Concentration (CPS).
Result: 220

Request: Consider the molecule NCCCCNC(=O)c1ccccc1Nc1cccc(C(F)(F)F)c1 [3c] and give its recorded Average Luminescence Concentration (CPS).
Result: 74

Request: Consider the molecule NCCNC(=O)c1ccccc1Nc1cccc(C(F)(F)F)c1 [3a] and give its recorded Average Luminescence Concentration (CPS).
Result: 816

Request: Consider the molecule Cc1ccc2c(c1)sc(-c1ccc(N(C)C)cc1)[n+]2C.[Cl-] [Thioflavin-T, reference compound] and give its recorded Average Luminescence Concentration (CPS).
Result: 570

----------
- system: Biotin-labeled amyloid-β (Homo sapiens, UniProt P05067)
- Sequence (P05067 672-711 limits assumed): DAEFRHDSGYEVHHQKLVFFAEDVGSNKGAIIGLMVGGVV
- test_name: ELISA assay, binding of biotin-labeled amyloid-β to plate-coated test compounds
- measurement_context: β-Amyloid Dilution 40 (μL/well); compound coated at 1 μM
parameter_measured: Average Luminescence Concentration (CPS)
Dear colleague, please return just the value in CPS, with no unit written.

Request: Consider the molecule NCCNC(=O)c1ccccc1Nc1cccc(C(F)(F)F)c1 and give its recorded Average Luminescence Concentration (CPS).
Result: 2986

Request: Consider the molecule Cc1ccc2c(c1)sc(-c1ccc(N(C)C)cc1)[n+]2C.[Cl-] [Thioflavin-T, reference compound] and give its recorded Average Luminescence Concentration (CPS).
Result: 5140

Request: Consider the molecule NCCCCCNC(=O)c1ccccc1Nc1cccc(C(F)(F)F)c1 and give its recorded Average Luminescence Concentration (CPS).
Result: 2579

Request: Consider the molecule NCCCCNC(=O)c1ccccc1Nc1cccc(C(F)(F)F)c1 and give its recorded Average Luminescence Concentration (CPS).
Result: 3025

Request: Consider the molecule NCCCNC(=O)c1ccccc1Nc1cccc(C(F)(F)F)c1 and give its recorded Average Luminescence Concentration (CPS).
Result: 4788

----------
- system: FKBP12 (Homo sapiens, UniProt P62942)
- Construct: His (6xHis); made in house; host or cells: E. coli BL21-AI
- Sequence (P62942 whole entry): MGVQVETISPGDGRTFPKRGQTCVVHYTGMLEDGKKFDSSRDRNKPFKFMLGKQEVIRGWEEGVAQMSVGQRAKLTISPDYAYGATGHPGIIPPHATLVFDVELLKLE
- test_name: ELISA screening of candidates for the chaperone binding portion (FKBP12)
- measurement_context: Concentration 40 (μM/well) biotin-labeled FKBP12; compound coated at 1 μM
Kindly state Average Luminescence Concentration (CPS) for each of the entries shown.
Dear colleague, please return just the value in CPS, with no unit written.

Request: Consider the molecule CCC(C)(C)C(=O)C(=O)N1CCCC[C@H]1C(=O)O[C@@H](CCc1ccc(OC)c(OC)c1)c1ccc(OCC(=O)O)cc1 [9-SS] and give its recorded Average Luminescence Concentration (CPS).
Result: 1231

Request: Consider the molecule CCC(C)(C)C(=O)C(=O)N1CCCC[C@H]1C(=O)O[C@@H](CCc1ccc(OC)c(OC)c1)c1ccc(OCC(=O)O)cc1 [9-RR] and give its recorded Average Luminescence Concentration (CPS).
Result: 1138

Request: Consider the molecule CCC(C)(C)C(=O)C(=O)N1CCCC[C@H]1C(=O)O[C@@H](CCc1ccc(OC)c(OC)c1)c1ccc(OCC(=O)O)cc1 [9-SR] and give its recorded Average Luminescence Concentration (CPS).
Result: 1392

Request: Consider the molecule CCC(C)(C)C(=O)C(=O)N1CCCC[C@H]1C(=O)O[C@H](CCc1ccc(OC)c(OC)c1)c1ccc(OCC(=O)O)cc1 and give its recorded Average Luminescence Concentration (CPS).
Result: 5509

----------
- system: Biotin-labeled amyloid-β (Homo sapiens)
- test_name: ELISA assay, binding of biotin-labeled amyloid-β to plate-coated test compounds
- measurement_context: β-Amyloid Dilution 30 (μL/well); compound coated at 1 μM
Returns MET if the recorded Average Luminescence Concentration (CPS) is greater than or equal to 3000 CPS, and NOT MET otherwise.

Request: Determine whether this molecule has Average Luminescence Concentration (CPS) no lower than 3000 CPS: NCCCCCNC(=O)c1ccccc1Nc1cccc(C(F)(F)F)c1
Result: NOT MET

Request: Determine whether this molecule has Average Luminescence Concentration (CPS) no lower than 3000 CPS: Cc1ccc2c(c1)sc(-c1ccc(N(C)C)cc1)[n+]2C.[Cl-] [Thioflavin-T, reference compound]
Result: NOT MET

Request: Determine whether this molecule has Average Luminescence Concentration (CPS) no lower than 3000 CPS: NCCCNC(=O)c1ccccc1Nc1cccc(C(F)(F)F)c1
Result: MET

----------
- system: Biotin-labeled amyloid-β (Homo sapiens)
- test_name: ELISA assay, binding of biotin-labeled amyloid-β to plate-coated test compounds
- measurement_context: β-Amyloid Dilution 10 (μL/well); compound coated at 1 μM
Kindly state Average Luminescence Concentration (CPS) for each of the entries shown.
// unit must come after the numeric part

Request: # lookup: Biotin-labeled amyloid-β (Homo sapiens) Average Luminescence Concentration (CPS), key = NCCCCNC(=O)c1ccccc1Nc1cccc(C(F)(F)F)c1 [3c]
Result: 3128 CPS

Request: # lookup: Biotin-labeled amyloid-β (Homo sapiens) Average Luminescence Concentration (CPS), key = NCCCCCNC(=O)c1ccccc1Nc1cccc(C(F)(F)F)c1 [3d]
Result: 678 CPS

Request: # lookup: Biotin-labeled amyloid-β (Homo sapiens) Average Luminescence Concentration (CPS), key = NCCNC(=O)c1ccccc1Nc1cccc(C(F)(F)F)c1 [3a]
Result: 1453 CPS

Request: # lookup: Biotin-labeled amyloid-β (Homo sapiens) Average Luminescence Concentration (CPS), key = Cc1ccc2c(c1)sc(-c1ccc(N(C)C)cc1)[n+]2C.[Cl-] [Thioflavin-T, reference compound]
Result: 731 CPS

Request: # lookup: Biotin-labeled amyloid-β (Homo sapiens) Average Luminescence Concentration (CPS), key = NCCCNC(=O)c1ccccc1Nc1cccc(C(F)(F)F)c1 [3b]
Result: 1694 CPS

----------
- system: FKBP12 (Homo sapiens)
- Construct: His (6xHis); made in house; host or cells: E. coli BL21-AI
- test_name: ELISA screening of candidates for the chaperone binding portion (FKBP12)
- measurement_context: Concentration 10 (μM/well) biotin-labeled FKBP12; compound coated at 1 μM
Kindly state Average Luminescence Concentration (CPS) for each of the entries shown.
Dear colleague, please return just the value in CPS, with no unit written.

Request: Consider the compound CCC(C)(C)C(=O)C(=O)N1CCCC[C@H]1C(=O)O[C@@H](CCc1ccc(OC)c(OC)c1)c1ccc(OCC(=O)O)cc1 [9-SR] and give its recorded Average Luminescence Concentration (CPS).
Result: 1218

Request: Consider the compound CCC(C)(C)C(=O)C(=O)N1CCCC[C@H]1C(=O)O[C@@H](CCc1ccc(OC)c(OC)c1)c1ccc(OCC(=O)O)cc1 [9-RR] and give its recorded Average Luminescence Concentration (CPS).
Result: 769

Request: Consider the compound CCC(C)(C)C(=O)C(=O)N1CCCC[C@H]1C(=O)O[C@@H](CCc1ccc(OC)c(OC)c1)c1ccc(OCC(=O)O)cc1 [9-SS] and give its recorded Average Luminescence Concentration (CPS).
Result: 931

Request: Consider the compound CCC(C)(C)C(=O)C(=O)N1CCCC[C@H]1C(=O)O[C@H](CCc1ccc(OC)c(OC)c1)c1ccc(OCC(=O)O)cc1 and give its recorded Average Luminescence Concentration (CPS).
Result: 1685

----------
- system: FKBP12 (Homo sapiens, UniProt P62942)
- Construct: His (6xHis); made in house; host or cells: E. coli BL21-AI
- test_name: ELISA screening of candidates for the chaperone binding portion (FKBP12)
- measurement_context: Concentration 5 (μM/well) biotin-labeled FKBP12; compound coated at 1 μM
parameter_measured: Average Luminescence Concentration (CPS)
Dear colleague, please return just the value in CPS, with no unit written.

Request: Consider the compound CCC(C)(C)C(=O)C(=O)N1CCCC[C@H]1C(=O)O[C@@H](CCc1ccc(OC)c(OC)c1)c1ccc(OCC(=O)O)cc1 [9-SR] and give its recorded Average Luminescence Concentration (CPS).
Result: 1050

Request: Consider the compound CCC(C)(C)C(=O)C(=O)N1CCCC[C@H]1C(=O)O[C@@H](CCc1ccc(OC)c(OC)c1)c1ccc(OCC(=O)O)cc1 [9-RR] and give its recorded Average Luminescence Concentration (CPS).
Result: 1158

Request: Consider the compound CCC(C)(C)C(=O)C(=O)N1CCCC[C@H]1C(=O)O[C@@H](CCc1ccc(OC)c(OC)c1)c1ccc(OCC(=O)O)cc1 [9-SS] and give its recorded Average Luminescence Concentration (CPS).
Result: 876

Request: Consider the compound CCC(C)(C)C(=O)C(=O)N1CCCC[C@H]1C(=O)O[C@H](CCc1ccc(OC)c(OC)c1)c1ccc(OCC(=O)O)cc1 [9-RS] and give its recorded Average Luminescence Concentration (CPS).
Result: 1688
